# test-system: FLuc-C-HiBiT (Photinus pyralis)
# Construct: firefly luciferase with C-terminal HiBiT tag, E. coli expressed
# Sequence (P08659 whole entry, looked up): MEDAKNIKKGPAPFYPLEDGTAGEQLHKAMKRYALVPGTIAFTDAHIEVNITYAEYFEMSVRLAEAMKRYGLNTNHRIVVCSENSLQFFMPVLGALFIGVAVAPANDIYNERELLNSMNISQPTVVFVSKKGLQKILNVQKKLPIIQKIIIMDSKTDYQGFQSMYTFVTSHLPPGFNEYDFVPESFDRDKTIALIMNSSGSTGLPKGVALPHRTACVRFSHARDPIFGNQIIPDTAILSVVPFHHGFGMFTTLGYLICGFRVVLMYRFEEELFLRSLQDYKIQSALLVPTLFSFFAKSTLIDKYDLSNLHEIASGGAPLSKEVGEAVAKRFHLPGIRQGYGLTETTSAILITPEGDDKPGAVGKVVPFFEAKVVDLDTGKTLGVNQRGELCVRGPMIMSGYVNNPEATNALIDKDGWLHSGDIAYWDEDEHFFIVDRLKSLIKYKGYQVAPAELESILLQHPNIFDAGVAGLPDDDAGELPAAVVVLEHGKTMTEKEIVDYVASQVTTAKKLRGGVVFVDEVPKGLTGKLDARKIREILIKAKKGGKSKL
# assay-method-text: biochemical
# measurement-context: enzyme activity, 10 uM ATP; read-out: IC50 or SDR50 (mM) / FLuc E
endpoint-label: IC50 (mM)
Give bare numbers, in mM.

compound | unit | observed-measurement
C[C@@H]1C(=O)O[C@H]2[C@H]1CC[C@@]1(C)Cc3sc(NCc4ccccc4)nc3[C@@H](C)[C@H]21 | mM | 0.00718
Cc1c(N[S+](C)(=O)[O-])cccc1-c1nc2ccccc2s1 | mM | 0.00989
COc1ccccc1NC(=O)CN1C(=O)CC(c2ccc(C)c(C)c2)=Nc2ccccc21 | mM | 0.0124
COc1cccc(-c2cccc(COc3cnc4c(ccn4CC(=O)O)c3)c2)c1F | mM | 0.0128
CCOc1ccc(-c2cc3c(=O)n(CCNC(=O)c4cccc5[nH]ccc45)ccn3n2)cc1 | mM | 0.00556

I would be grateful if you could provide IC50 for each of the following entries.
1. COc1ccc(NC(=O)c2cc3ccccc3o2)c(OC)c1
2. Cc1ncccc1C(=O)N1CC(Oc2ccc(-c3nc(-c4ccccc4)no3)cc2)C1

Result string:
1. 0.00495
2. 0.00624

###

# test-system: FLuc-C-HiBiT (firefly luciferase) (Photinus pyralis, UniProt P08659, form not given/L550V)
# Sequence (P08659 2-550 L550V, form open): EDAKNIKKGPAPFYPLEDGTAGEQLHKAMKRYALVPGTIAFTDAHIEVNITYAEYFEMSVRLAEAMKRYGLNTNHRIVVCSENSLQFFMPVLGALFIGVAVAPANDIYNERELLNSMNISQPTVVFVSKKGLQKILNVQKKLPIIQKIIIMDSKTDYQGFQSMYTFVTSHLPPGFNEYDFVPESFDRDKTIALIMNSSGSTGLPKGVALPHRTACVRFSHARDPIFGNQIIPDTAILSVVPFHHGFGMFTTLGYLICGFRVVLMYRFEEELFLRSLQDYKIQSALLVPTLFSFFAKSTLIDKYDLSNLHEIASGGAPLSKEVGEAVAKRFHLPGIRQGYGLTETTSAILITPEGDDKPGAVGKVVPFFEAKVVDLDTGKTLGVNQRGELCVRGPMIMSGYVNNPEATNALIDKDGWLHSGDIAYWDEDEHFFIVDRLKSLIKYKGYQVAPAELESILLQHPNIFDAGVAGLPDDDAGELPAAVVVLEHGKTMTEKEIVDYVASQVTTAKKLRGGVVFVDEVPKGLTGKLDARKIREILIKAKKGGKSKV
# assay-method-text: SDR assay, FLuc-C-HiBiT
# measurement-context: 10 nM FLuc-C-HiBiT; normalized activity; Log [Compound], M -6.87
If the reported SDR + 10 mM ATP equals or exceeds 20, assign met. If not, assign not met.

Example results:
compound | answer-label
Cc1ccc(-n2ncc3c(N4CCCCCC4)ncnc32)cc1 | met
CC(CNC(=O)C1CCN(C(=O)c2ncn3c2COC(c2ccccc2)C3)CC1)c1ccccc1 (centres unmarked) | not met
CC1CCCN(c2ncnc3c2cnn3-c2ccccc2)C1 (centres unmarked) | not met
Fc1ccc(-c2cn3cc(Cc4ccccc4)sc3n2)cc1 | not met

Query string: For this compound, is measured SDR + 10 mM ATP 20 or higher? O=C(O)CCSc1nnc(-c2ccc(Cl)cc2Cl)o1
Result string: not met

###

# test-system: P. pyralis FLuc (Photinus pyralis, UniProt P08659)
# assay-method-text: FLuc enzymatic luminescence assay, P. pyralis FLuc
# Type: biochemical
# measurement-context: FLuc enzymatic assay; Clade S follow-up
If the reported Efficacy (%) FLuc E equals or exceeds -30%, assign criterion met. If not, assign criterion not met.

Example results:
compound | answer-label
CCc1ccc(NC(=O)C2CCN(C(=O)c3ncn4c3COC(c3ccc(F)cc3)C4)CC2)cc1 (centres unmarked) [NCGC00449925-01] | criterion not met
CCC(CC)NC(=O)C1CCN(C(=O)c2ncn3c2COC(c2ccc(F)cc2)C3)CC1 (centres unmarked) [NCGC00430454-01] | criterion met
Cc1ccc(C2Cn3cnc(C(=O)N4CCC(C(=O)NCCC(C)C)CC4)c3CO2)cc1 (centres unmarked) [NCGC00422121-01] | criterion met

Query string: For this compound, is measured Efficacy (%) FLuc E -30% or higher? O=C(Nc1ccc(F)cc1)C1CCN(C(=O)c2ncn3c2COC(c2ccccc2)C3)CC1 (centres unmarked) [NCGC00449915-01]
Result string: criterion not met

Query string: For this compound, is measured Efficacy (%) FLuc E -30% or higher? Cc1ccc(CNC(=O)C2CCN(C(=O)c3ncn4c3COC(c3ccc(F)cc3)C4)CC2)cc1 (centres unmarked) [NCGC00449814-01]
Result string: criterion met

Query string: For this compound, is measured Efficacy (%) FLuc E -30% or higher? Cc1ccc(C2Cn3cnc(C(=O)N4CCC(C(=O)NCc5ccccc5F)CC4)c3CO2)cc1 (centres unmarked) [NCGC00449888-01]
Result string: criterion not met

Query string: For this compound, is measured Efficacy (%) FLuc E -30% or higher? COc1ccc(C2Cn3cnc(C(=O)N4CCC(C(=O)NC5CCCCCC5)CC4)c3CO2)cc1 (centres unmarked) [NCGC00449862-01]
Result string: criterion met

Query string: For this compound, is measured Efficacy (%) FLuc E -30% or higher? Cc1ccc(NC(=O)C2CCN(C(=O)c3ncn4c3COC(c3ccccc3)C4)CC2)cc1 (centres unmarked) [NCGC00449903-01]
Result string: criterion not met
